# assay-comment: Cytotoxicity against human HepG2 cells incubated for 72 hrs by CCK8 assay
# Assay type: toxicity, cell-based
assay-metric: IC50 at 72 h

[
  {
    "compound-structure": "COC1CCN(Cc2coc(-c3ccc(C(F)(F)F)cc3)n2)CC1",
    "IC50 at 72 h": "> 100 µM"
  }
]

I need IC50 at 72 h for every entry listed below, if you could help.
1. COC(=O)C1CCN(Cc2coc(-c3ccc(C(F)(F)F)cc3)n2)CC1
2. CS(=O)(=O)N1CCN(Cc2coc(-c3ccc(C(F)(F)F)cc3)n2)CC1

["> 100 µM", "> 100 µM"]

* * *

# experimental-target: CYP1A2 (Homo sapiens)
# Sequence (P05177 whole entry): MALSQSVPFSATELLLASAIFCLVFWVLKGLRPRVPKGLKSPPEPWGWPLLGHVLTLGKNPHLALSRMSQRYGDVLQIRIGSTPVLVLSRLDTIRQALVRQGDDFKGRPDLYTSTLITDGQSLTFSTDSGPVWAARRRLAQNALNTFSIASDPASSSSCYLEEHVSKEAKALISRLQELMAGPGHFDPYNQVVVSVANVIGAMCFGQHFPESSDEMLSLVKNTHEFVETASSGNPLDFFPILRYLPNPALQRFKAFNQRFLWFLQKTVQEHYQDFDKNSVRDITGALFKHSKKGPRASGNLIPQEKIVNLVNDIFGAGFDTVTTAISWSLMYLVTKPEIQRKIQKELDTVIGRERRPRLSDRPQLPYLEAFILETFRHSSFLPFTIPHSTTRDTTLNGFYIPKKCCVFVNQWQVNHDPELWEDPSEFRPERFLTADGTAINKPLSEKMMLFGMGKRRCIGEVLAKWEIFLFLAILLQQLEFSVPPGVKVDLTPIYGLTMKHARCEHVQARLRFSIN
# assay-comment: Inhibition of CYP1A2 in human liver microsomes at 10 uM relative to control
# Type: ADME, Microsome
assay-metric: inhibition at 10 µM (%)
One number for each entry, in %.

Observed inhibition at 10 µM on CYP1A2 (Homo sapiens) for `COC(=O)C1CCN(Cc2coc(-c3ccc(C(F)(F)F)cc3)n2)CC1` , please.
16.2

* * *

# experimental-target: CYP2C9 (Homo sapiens)
# Sequence (P11712 whole entry): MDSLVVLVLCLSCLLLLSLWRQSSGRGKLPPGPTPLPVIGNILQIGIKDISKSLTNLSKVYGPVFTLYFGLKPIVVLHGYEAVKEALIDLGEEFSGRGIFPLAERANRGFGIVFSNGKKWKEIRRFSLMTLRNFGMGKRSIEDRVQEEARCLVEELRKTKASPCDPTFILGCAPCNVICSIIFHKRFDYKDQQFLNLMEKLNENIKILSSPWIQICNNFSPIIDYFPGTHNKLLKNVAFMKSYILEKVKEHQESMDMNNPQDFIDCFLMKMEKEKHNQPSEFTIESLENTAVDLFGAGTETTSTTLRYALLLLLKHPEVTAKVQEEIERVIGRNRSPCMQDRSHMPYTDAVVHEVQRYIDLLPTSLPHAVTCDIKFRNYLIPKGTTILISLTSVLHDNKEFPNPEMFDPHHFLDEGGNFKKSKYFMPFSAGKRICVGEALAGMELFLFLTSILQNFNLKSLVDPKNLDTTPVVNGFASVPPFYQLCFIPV
# assay-comment: Inhibition of CYP2C9 in human liver microsomes at 10 uM relative to control
# Assay type: ADME, Microsome
assay-metric: inhibition at 10 µM (%)
Answers are plain numbers, in %.

Request the reported inhibition at 10 µM associated with `COC(=O)C1CCN(Cc2coc(-c3ccc(C(F)(F)F)cc3)n2)CC1`
5.8

Recorded values, source ChEMBL document CHEMBL6083256.
